Biological target: mu receptor (Rattus norvegicus)
Construct: rat whole brain minus cerebellum for mu was homogenized; from tissue; host or cells: brain of male Sprague Dawley rats, whole brain minus cerebellum, homogenate fraction
Sequence (P33535 whole entry): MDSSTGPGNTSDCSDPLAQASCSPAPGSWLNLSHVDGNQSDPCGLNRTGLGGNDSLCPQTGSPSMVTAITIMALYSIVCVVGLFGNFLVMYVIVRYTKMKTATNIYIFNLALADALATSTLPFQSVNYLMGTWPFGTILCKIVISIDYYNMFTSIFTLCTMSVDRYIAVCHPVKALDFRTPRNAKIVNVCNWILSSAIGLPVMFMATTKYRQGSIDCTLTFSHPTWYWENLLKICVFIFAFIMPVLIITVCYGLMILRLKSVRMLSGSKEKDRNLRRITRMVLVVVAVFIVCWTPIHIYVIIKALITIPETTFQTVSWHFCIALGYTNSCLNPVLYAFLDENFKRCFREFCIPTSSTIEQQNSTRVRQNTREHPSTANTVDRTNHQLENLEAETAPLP
Test: opioid receptor binding assay, [3H] NAL (tritiated naloxone), mu receptor
Set-up: species or system rat (Male Sprague Dawley), brain minus cerebellum
Conditions: 20 min, read-out: % displacement at 100 nM, 100 nM test compound; [3H] naloxone 0.5 nM
Counter-ions that a name gives are not always drawn.

{"columns": ["COMPOUND", "MEASURE_UNIT", "inhibition at 0.1 µM"],
 "data": [
  ["CCOC(=O)CCCNC(=O)C(CCN1CC[C@@](C)(c2cccc(O)c2)[C@@H](C)C1)C1CCCCC1 (relative stereo) [Example 23, monohydrochloride monohydrate]", "%", 96],
  ["CCOC(=O)C(CC1CCCCC1)CN1CC[C@@](C)(c2cccc(O)c2)[C@@H](C)C1 (relative stereo) [Example 5A, hydrochloride]", "%", 93],
  ["C[C@H]1CN(CC(Cc2ccccc2)C(=O)NCC(=O)NCC(=O)O)CC[C@@]1(C)c1cccc(O)c1 (relative stereo) [Example 68, monohydrate]", "%", 86]
]}
